method summary: doxorubicin toxicity protection in MRP-1 cells – H69AR cells, CellTiter-Glo, duplicate, MRP-1 activator project, pilot screen (AID 807);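 further: compound pretreatment 18-22 h then 72 h combined with doxorubicin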
experimental parameters: H69AR viability with doxorubicin, CellTiter-Glo luminescence; at 10 µM
Activity calls are given as the source filed them.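 How the source made its calls: active means viability increase at or above a cutoff of the median across tested compounds plus 3 SD (cut at about 8.5% in these data, passing the limit was not always enough); inconclusive means some gains above the cutoff, reason not given; inactive means the rest.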
Respond using exactly one of the listed classes: active, inactive

Called result for C(=C\c1ccccc1)/CN1CCN(c2ncnc3c2oc2ccccc23)CC1
inactive

Please answer likewise for O=C(Cn1cc2c(n1)CCCCC2)NCCCN1CCOCC1
inactive

Please answer likewise for COc1cc(OC)c(NC(=O)CS(=O)(=O)Cc2nc(-c3ccc(C)cc3)oc2C)cc1Cl
inactive

Please answer likewise for COc1ccc(OC)c(-c2cc(C(=O)N3CCN(c4ccccc4)CC3)no2)c1
inactive

Please answer likewise for Cc1cc(C)n(-c2nc3ccccc3nc2Nc2ccc3c(c2)OCO3)n1
inactive

Please answer likewise for Brc1ccc(Oc2nnnn2-c2ccccc2)cc1
inactive

Please answer likewise for CCCCn1c(Oc2ccc(C(=O)OC)cc2)nc2c1c(=O)n(C)c(=O)n2C
inactive

Please answer likewise for Cc1c(C(=O)NCc2cccs2)oc2ccc(S(=O)(=O)N3CCOCC3)cc12
inactive

Please answer likewise for Cc1noc(/C=C/N(C)C)c1S(=O)(=O)N1CCCC(C(=O)NCc2cccs2)C1 (centres undefined)
active
